Target: InsR (Homo sapiens)
Sequence (P06213 28-1382, species assumed): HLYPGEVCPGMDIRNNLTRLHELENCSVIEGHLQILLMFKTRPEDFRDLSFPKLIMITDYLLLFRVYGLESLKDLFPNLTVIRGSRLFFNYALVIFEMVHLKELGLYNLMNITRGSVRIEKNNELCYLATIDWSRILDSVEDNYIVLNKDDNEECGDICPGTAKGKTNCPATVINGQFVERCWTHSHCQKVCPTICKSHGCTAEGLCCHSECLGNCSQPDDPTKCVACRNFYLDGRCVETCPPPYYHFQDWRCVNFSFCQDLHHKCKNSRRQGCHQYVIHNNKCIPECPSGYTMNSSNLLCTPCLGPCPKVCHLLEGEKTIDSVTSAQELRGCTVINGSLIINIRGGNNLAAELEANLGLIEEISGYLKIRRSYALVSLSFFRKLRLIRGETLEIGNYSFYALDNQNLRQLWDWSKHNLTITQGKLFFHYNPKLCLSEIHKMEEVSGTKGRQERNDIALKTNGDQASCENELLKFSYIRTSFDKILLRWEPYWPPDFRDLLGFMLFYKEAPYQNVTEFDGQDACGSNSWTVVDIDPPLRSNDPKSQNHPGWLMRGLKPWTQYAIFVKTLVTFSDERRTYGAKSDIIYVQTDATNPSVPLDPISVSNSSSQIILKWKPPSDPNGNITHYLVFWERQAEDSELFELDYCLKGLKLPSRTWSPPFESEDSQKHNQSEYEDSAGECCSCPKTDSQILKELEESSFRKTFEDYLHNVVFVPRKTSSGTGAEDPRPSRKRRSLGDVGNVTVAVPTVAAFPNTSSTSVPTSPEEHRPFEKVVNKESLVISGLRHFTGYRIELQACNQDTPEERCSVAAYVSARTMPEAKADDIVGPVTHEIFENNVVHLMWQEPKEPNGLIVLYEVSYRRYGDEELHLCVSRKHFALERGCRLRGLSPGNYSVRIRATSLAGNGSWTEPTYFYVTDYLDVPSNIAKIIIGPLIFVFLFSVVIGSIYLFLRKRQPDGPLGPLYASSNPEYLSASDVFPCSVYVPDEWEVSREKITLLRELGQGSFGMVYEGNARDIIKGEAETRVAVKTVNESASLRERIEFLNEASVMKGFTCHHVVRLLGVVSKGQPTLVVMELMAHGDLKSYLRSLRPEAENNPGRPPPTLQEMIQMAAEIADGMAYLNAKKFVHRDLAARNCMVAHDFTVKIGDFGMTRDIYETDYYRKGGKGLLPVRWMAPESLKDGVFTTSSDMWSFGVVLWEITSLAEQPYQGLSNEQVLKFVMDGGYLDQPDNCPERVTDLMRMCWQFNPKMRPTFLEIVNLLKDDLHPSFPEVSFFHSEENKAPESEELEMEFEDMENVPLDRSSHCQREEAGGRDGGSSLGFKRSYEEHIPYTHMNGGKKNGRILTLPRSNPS
Assay: Enzymatic kinase assay (filter-binding/flashplate)
Type: biochemical
Details: metabolite comparison table; read-out: InsR IC50
Metric: pIC50
Units for pIC50: none; it is -log10 of a concentration expressed in mol/L.

Prompt: For the molecule shown here, Nc1ncnc2c1c(-c1cccc(OCc3ccccc3)c1)cn2[C@H]1C[C@@H](CN2CCC2)C1 , give the reported pIC50.
Completion: 6.64

* * *

UniProt:P22455: reported pIC50 for various compounds.
Sequence (P22455 22-802, species assumed): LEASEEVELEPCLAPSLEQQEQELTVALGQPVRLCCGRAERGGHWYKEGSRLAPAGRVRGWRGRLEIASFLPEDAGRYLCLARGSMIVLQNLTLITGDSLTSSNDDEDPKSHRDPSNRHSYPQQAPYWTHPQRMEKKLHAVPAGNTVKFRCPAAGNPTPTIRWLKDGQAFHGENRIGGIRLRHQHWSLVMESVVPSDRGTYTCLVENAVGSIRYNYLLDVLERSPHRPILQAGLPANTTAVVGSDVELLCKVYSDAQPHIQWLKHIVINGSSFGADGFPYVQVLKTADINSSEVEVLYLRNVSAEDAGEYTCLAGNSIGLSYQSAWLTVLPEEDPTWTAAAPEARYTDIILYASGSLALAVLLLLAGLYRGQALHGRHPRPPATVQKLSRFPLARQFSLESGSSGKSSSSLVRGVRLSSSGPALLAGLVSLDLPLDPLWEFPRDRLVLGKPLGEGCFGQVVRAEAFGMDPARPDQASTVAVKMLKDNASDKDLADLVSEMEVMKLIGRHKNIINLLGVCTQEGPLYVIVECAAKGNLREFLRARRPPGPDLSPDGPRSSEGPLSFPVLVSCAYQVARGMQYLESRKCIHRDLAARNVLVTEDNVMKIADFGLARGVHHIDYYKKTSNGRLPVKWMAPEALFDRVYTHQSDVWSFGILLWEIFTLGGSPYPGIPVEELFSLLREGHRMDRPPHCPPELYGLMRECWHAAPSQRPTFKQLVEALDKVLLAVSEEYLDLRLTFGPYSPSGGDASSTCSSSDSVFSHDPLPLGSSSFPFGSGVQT
pIC50: −log10 of the molar value.

The following compounds have reported results that may help.
Compound	pIC50
Nc1ncnc2c1c(-c1cccc(OC[C@@H]3CCCO3)c1F)cn2[C@H]1C[C@@H](CN2CC[S+]([O-])CC2)C1	< 5.00
C[C@]1(O)C[C@@H](c2nc(-c3ccc4ccc(-c5ccccc5)nc4c3)c3c(N)nccn32)C1 [Linsitinib, reference compound]	< 5.00

Prompt: Which measured pIC50 belongs to Nc1ncnc2c1c(-c1cc(OC[C@@H]3CCCO3)ccc1F)cn2[C@H]1C[C@@H](N2CCN(C(=O)CO)CC2)C1 , tested on UniProt:P22455?
Completion: < 5.00

* * *

Data export: pIC50 values recorded with GSK3beta (Homo sapiens, UniProt P49841).
Sequence (P49841 whole entry, species assumed): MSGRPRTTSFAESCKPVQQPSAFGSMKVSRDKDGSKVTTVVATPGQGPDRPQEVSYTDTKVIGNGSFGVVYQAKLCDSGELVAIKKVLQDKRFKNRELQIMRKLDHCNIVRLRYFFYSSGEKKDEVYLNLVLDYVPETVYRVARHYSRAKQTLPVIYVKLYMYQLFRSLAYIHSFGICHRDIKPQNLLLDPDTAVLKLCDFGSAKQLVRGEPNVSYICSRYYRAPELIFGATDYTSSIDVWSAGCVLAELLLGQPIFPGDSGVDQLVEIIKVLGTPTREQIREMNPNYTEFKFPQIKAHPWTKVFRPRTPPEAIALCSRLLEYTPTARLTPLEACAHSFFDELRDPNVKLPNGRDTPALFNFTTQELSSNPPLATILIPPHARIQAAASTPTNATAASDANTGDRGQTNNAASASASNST
pIC50: −log10 of the molar value.

Compound	pIC50
Nc1ncnc2c1c(-c1cccc(OCC3CCCO3)c1F)cn2[C@H]1C[C@@H](CN2CCS(=O)(=O)CC2)C1 (mixture of isomers) [Example 1]	< 5.00
[2H]C1([2H])C([2H])([2H])C2(COc3cccc(-c4cn([C@H]5C[C@@H](N6CC[S+]([O-])CC6)C5)c5ncnc(N)c45)c3F)OC1([2H])C([2H])([2H])C2([2H])[2H] [Example 18]	< 5.00

API: the following record is the query input.
Prompt: What value of pIC50 has been recorded for this entry: CC(=O)N1CCN([C@H]2C[C@H](n3cc(-c4cc(OC[C@@H]5CCCO5)ccc4F)c4c(N)ncnc43)C2)CC1 [Example 36]
Completion: < 5.00

* * *

Biological target: IGF1R (Homo sapiens)
Sequence (P08069 31-1367): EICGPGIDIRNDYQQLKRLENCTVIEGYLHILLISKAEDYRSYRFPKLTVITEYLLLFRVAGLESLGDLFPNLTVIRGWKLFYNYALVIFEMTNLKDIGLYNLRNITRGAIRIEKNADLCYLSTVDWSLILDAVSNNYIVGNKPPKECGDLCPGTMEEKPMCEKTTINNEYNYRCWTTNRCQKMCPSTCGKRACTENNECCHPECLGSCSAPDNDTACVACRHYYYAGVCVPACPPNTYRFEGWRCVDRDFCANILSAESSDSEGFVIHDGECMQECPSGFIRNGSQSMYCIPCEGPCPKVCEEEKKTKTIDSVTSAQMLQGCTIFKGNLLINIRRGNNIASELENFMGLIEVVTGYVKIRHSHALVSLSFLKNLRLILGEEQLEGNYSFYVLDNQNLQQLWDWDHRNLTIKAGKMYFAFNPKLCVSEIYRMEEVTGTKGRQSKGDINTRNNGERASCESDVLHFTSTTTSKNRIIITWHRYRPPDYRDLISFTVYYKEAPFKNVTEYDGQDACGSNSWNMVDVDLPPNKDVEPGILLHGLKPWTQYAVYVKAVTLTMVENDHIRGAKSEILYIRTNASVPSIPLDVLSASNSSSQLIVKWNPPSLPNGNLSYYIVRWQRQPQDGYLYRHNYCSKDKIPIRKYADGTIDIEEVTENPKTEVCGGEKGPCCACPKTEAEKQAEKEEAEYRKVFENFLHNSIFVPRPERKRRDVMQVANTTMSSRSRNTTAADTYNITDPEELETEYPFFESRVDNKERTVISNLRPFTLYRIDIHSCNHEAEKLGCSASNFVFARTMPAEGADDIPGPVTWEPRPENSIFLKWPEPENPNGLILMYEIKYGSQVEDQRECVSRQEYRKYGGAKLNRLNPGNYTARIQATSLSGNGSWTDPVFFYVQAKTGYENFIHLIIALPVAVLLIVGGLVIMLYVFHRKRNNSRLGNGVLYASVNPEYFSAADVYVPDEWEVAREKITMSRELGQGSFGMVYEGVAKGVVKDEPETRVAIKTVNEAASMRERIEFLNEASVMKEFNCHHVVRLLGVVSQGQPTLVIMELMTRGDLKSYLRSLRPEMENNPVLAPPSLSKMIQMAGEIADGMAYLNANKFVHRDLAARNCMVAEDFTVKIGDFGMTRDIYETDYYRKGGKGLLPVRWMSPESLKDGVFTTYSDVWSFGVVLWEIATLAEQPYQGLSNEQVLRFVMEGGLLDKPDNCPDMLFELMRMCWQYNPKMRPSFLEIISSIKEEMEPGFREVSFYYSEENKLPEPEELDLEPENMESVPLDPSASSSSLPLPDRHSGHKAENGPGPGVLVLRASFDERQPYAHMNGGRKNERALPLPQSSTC
Experiment: Cellular IGF-1R assay: inhibition of IGF1R phosphorylation in Hek293 cells, capture ELISA (MSD)
Assay type: cell-based
Set-up: expressed in transfected cells; host or cells: Hek293 (Hek293-IGF1R)
Settings: IGF-triggered receptor phosphorylation
Metric: IC50 (nM)

Molecule	Tested System	Assay Result
CC(=O)NC[C@H]1C[C@@H](n2cc(-c3cc(OCC4CCCO4)ccc3F)c3c(N)ncnc32)C1 (mixture of isomers)	IGF1R (Homo sapiens)	95
Nc1ncnc2c1c(-c1cccc(OCC3CCO3)c1F)cn2[C@H]1C[C@@H](N2CC[S+]([O-])CC2)C1 (relative stereo)	IGF1R (Homo sapiens)	452
Nc1ncnc2c1c(-c1cccc(OCC3CCO3)c1F)cn2[C@H]1C[C@@H](CN2CC[S+]([O-])CC2)C1 (relative stereo)	IGF1R (Homo sapiens)	368

A: Nc1ncnc2c1c(-c1ccc(F)c(OCC34CCC(CC3)O4)c1)cn2[C@H]1C[C@@H](CN2CCS(=O)(=O)CC2)C1 (relative stereo)
B: Nc1ncnc2c1c(-c1cccc(OCC3CCCO3)c1F)cn2[C@H]1C[C@@H](CN2CCS(=O)(=O)CC2)C1 (mixture of isomers)
Prompt: Of the two listed items, which has the higher IC50? First: A Second: B Field: selected label. Fill in the label of the entry you choose.
Completion: A
(A: 18 nM, B: 5 nM)
